Quick reference for GI50 among some compounds
Test system: MOLT-4 leukemia
measurement notes: NCI tumour cell line growth inhibition, 48 h

Worked cases, answers included:
1) CCCCCCC[CH2][Sn]1([CH2]CCCCCCC)[O]C(=O)c2cccnc2[O]1	> 100 µM
2) COc1cccc(/C=C2\COc3ccc(-c4ccccc4)cc3C2=O)c1	3.09 µM

Please find the next compound below.
[ask] # lookup: GI50 of O=C(CN1C(=O)S/C(=C\C(Cl)=C\c2ccccc2)C1=O)NC1C=CS(=O)(=O)C1 (stereo not drawn)
[reply] 0.621 µM

* * *

System: MDA-MB-231 breast
measurement notes: NCI tumour cell line growth inhibition, 48 h
measurement label: TGI

1) CC(=O)N(O)c1ccc(-c2nc3ccccc3s2)cc1	> 100 µM
2) CCOC(=O)C1=COC(C)(CCc2ccccc2)CC1=O (stereo not drawn)	> 100 µM

[ask] # lookup: TGI of "CN(C)C(=S)SCC(=O)Nc1ccccc1"
[reply] > 100 µM

* * *

System: HCC-2998 colon
measurement notes: NCI tumour cell line growth inhibition, 48 h; in the data active = GI50 below about 0.43 µM; inactive = the rest
Form entry, call: pick from 1 (yes) = active, 0 (no) = inactive

[ask] Entry "COC(=O)[C@H]1CCCN1C(=O)[C@H]1CCCN1C(=O)[C@H](Cc1c[nH]c2ccccc12)NC(=S)Nc1cc(C(F)(F)F)cc(C(F)(F)F)c1" : call = ?
[reply] 0 (no)

[ask] Entry "COc1ccc(/C=C/C(=O)c2sc(-n3nc(-c4ccccc4)cc3-c3ccccc3)nc2C)cc1" : call = ?
[reply] 0 (no)

[ask] Entry "O=C1NC(=NCCCc2ccccc2)S/C1=C\c1ccc2ncccc2c1" : call = ?
[reply] 0 (no)

* * *

Test system: SNB-75 CNS
measurement notes: NCI tumour cell line growth inhibition, 48 h
Quick reference for log10 of TGI among some molecules
Log10 applied to TGI; unit prior to transform: µM.

Worked cases, answers included:
1) CN1CCN(CCCOc2cccc3nc(Nc4ccc(Cl)c(C(F)(F)F)c4)ccc23)CC1	0.58
2) Cc1cc(Cl)nc(N(CCCNc2ccnc3cc(Cl)ccc23)Cc2ccco2)n1	1.05
3) COc1ccc(-n2sc3ncccc3c2=O)cc1	1.71
4) CO[C@H]1C[C@@H]2CC[C@@H](C)[C@@](O)(O2)C(=O)C(=O)N2CCCC[C@H]2C(=O)O[C@H]([C@H](C)C[C@@H]2CC[C@@H](OCCO)[C@H](OC)C2)CC(=O)[C@H](C)C=C(C)[C@@H](O)[C@@H](OC)C(=O)[C@H](C)C[C@H](C)/C=C/C=C/C=C1C	1.15
5) CCOC(=O)c1cnc2c(C)cccc2c1Nc1ccc(C(C)=O)cc1	1.71

[ask] Please tell me: log10 of TGI of "O=[N+]([O-])c1ccc(O)c(/C=N/NC(=S)N2CCCCC2)c1" , system SNB-75 CNS?
[reply] 1.52

[ask] Please tell me: log10 of TGI of "Cc1c(/C=N/N(C)C)oc2c1cc(O)c1ncccc12" , system SNB-75 CNS?
[reply] 1.94

[ask] Please tell me: log10 of TGI of "COc1cccc(/C=C2\COc3ccc(-c4ccccc4)cc3C2=O)c1" , system SNB-75 CNS?
[reply] 0.68

[ask] Please tell me: log10 of TGI of CCOc1ccc(NC(=O)CC2C(=O)Nc3ccccc3S2(=O)=O)cc1 (stereo not drawn) , system SNB-75 CNS?
[reply] 1.64

[ask] Please tell me: log10 of TGI of COc1ccc(C(OCC2OC(n3ccc(NC(=O)c4ccccc4)nc3=O)CC2OP2(=S)SCCS2)(c2ccccc2)c2ccc(OC)cc2)cc1 (stereo not drawn) , system SNB-75 CNS?
[reply] 1.67

[ask] Please tell me: log10 of TGI of C[C@]12CCC3[C@@H](CC[C@@H]4c5nonc5CC[C@]34C)C1CC[C@@H]2O (stereo partly drawn) , system SNB-75 CNS?
[reply] 1.89

* * *

System: KM12 colon
measurement notes: NCI tumour cell line growth inhibition, 48 h
measurement label: TGI

1) CCOc1cc(NC(C)=O)ccc1C(=O)NN1C(=O)CSC1c1ccccc1 (centres undefined)	> 100 µM
2) Nc1c(Cl)ncnc1NCCCNc1ncnc(Cl)c1N	> 100 µM
3) Cc1ccc(S(=O)(=O)N/N=C(/c2nc3ccc([N+](=O)[O-])cc3[nH]c2=O)C(O)c2ccc(C(O)/C(=N\NS(=O)(=O)c3ccc(C)cc3)c3nc4ccc([N+](=O)[O-])cc4[nH]c3=O)cc2)cc1 (centres undefined)	> 100 µM
4) Cn1c(N/N=C/c2ccccc2)nc(-c2ccc([N+](=O)[O-])cc2)c(C#N)c1=O	> 100 µM
5) CC1=C(C(=O)Nc2cc(F)c(F)cc2F)C(c2ccc([N+](=O)[O-])cc2)C(C(=O)Nc2cc(F)c(F)cc2F)=C(C)N1	> 100 µM

[ask] Please tell me: TGI of "CCCC(CCN)(CCN)[N+](=O)[O-]" , system KM12 colon?
[reply] > 100 µM

[ask] Please tell me: TGI of "O=C(Nc1nc2ccccc2s1)Nc1ccc([N+](=O)[O-])cc1Cl" , system KM12 colon?
[reply] 8.48 µM

[ask] Please tell me: TGI of CN(C)c1cc[n+](-c2nc(/N=C(\[O-])C(F)(F)F)nc3c2ncn3C2CC(O)C(CO)O2)cc1 (centres undefined) , system KM12 colon?
[reply] > 100 µM

[ask] Please tell me: TGI of "Cn1c(-c2c(N)n(CCCN3CCOCC3)c3nc(C#N)c(C#N)nc23)nc2ccccc21" , system KM12 colon?
[reply] 31.4 µM

[ask] Please tell me: TGI of "CCN(CC)c1ccc(/C=C/C=C2C(=O)NC(=S)NC2=O)cc1" , system KM12 colon?
[reply] > 100 µM

[ask] Please tell me: TGI of "COc1cc(-c2nn(-c3cccc(NC(=O)c4ccc(Cl)c(C(F)(F)F)c4)c3)cc2-c2ccncc2)ccc1Cl" , system KM12 colon?
[reply] > 32.5 µM

[ask] Please tell me: TGI of "c1cnc(N2CCN(Cc3c[nH]c4ccccc34)CC2)nc1" , system KM12 colon?
[reply] 76.6 µM

[ask] Please tell me: TGI of "CC(C)(C)C(C#N)(C#N)c1ccc(C(C#N)(C#N)C(C)(C)C)nn1" , system KM12 colon?
[reply] > 100 µM

[ask] Please tell me: TGI of Nc1ncnc2c1ncn2C1OC(CO)C(O)C1N (centres undefined) , system KM12 colon?
[reply] > 100 µM

[ask] Please tell me: TGI of CC(C)(C)OC(=O)NCCCCC(NC(=O)c1ccccc1)C(N)=O (centres undefined) , system KM12 colon?
[reply] > 100 µM

[ask] Please tell me: TGI of "CC(=O)N(O)c1ccc(-c2nc3ccccc3s2)cc1" , system KM12 colon?
[reply] > 100 µM

[ask] Please tell me: TGI of "CC(C)(C)N(Cc1ccc2c(c1)OCO2)C(=O)/C=C\Sc1ccccc1" , system KM12 colon?
[reply] > 100 µM

[ask] Please tell me: TGI of "O=C(NC(=S)NC(=O)c1cc(O)c(O)c(O)c1)c1cc(O)c(O)c(O)c1" , system KM12 colon?
[reply] 70.5 µM

[ask] Please tell me: TGI of CC(=O)C1=C(O)C2C3c4c[nH]c5cccc(c45)CC3C(C)(C)N2C1=O (centres undefined) , system KM12 colon?
[reply] > 100 µM

[ask] Please tell me: TGI of "COc1cc2nc(-c3cccs3)[nH]c(=O)c2cc1OC" , system KM12 colon?
[reply] > 100 µM

[ask] Please tell me: TGI of "ClC(Cl)[Si]12OCCN(CCO1)CCO2" , system KM12 colon?
[reply] > 100 µM

[ask] Please tell me: TGI of "COc1ccc(N=N/C(C(=O)C(F)(F)F)=C(\O)c2ccc(Cl)cc2)cc1" , system KM12 colon?
[reply] 38.7 µM

[ask] Please tell me: TGI of "Cc1cc(Cl)nc(N(CCCNc2ccnc3cc(Cl)ccc23)Cc2ccco2)n1" , system KM12 colon?
[reply] 11.5 µM

[ask] Please tell me: TGI of "CN(C)c1cccc(NC2=NCCO2)c1" , system KM12 colon?
[reply] 78.6 µM

* * *

Test system: SF-539 CNS
measurement notes: NCI tumour cell line growth inhibition, 48 h
measurement label: TGI (µM)
Write the value in µM as a bare number.

Worked cases, answers included:
1) COc1ccc(/C(C#N)=C2C=C/C(=N/O)c3ccccc3\2)cc1	0.67
2) CN1CCN(CCCOc2cccc3nc(Nc4ccc(Cl)c(C(F)(F)F)c4)ccc23)CC1	3.02
3) COC(=O)c1ccc(NC(=O)Oc2ccc(N(CCCl)CCCl)cc2)cc1	18.9
4) CCOC(=O)N(c1ccccc1)N(CC)C(=O)/C(C)=N/Nc1ccc([N+](=O)[O-])cc1	30
5) CC(=O)O[C@H]1CC[C@@]2(C)C(=CC[C@@H]3C2CC[C@]2(C)Nc4nc5ccccc5cc4CC32)C1 (stereo partly drawn)	12
6) CCc1nc2ccc(NCCN(C)C)c3c(=O)c4ccccc4n1c23	15

Please find the next molecule below.
[ask] # lookup: TGI of CC1CC(=O)N(N(C)C)C(C#N)(C#N)C1(C#N)C#N (stereo not drawn)
[reply] 59.1
